meta.source: patent US9012678B2

protocol_summary: Stability study for Fesoterodine Fumarate (description, water by KF, related substances by HPLC on storage)
Assay type: physicochemical
experimental_context: 3 Months 40° C. ± 2° C./RH 75% ± 5%; PSD: D(90) = 270 microns
Protocol: As used herein, the term “stable fesoterodine fumarate” fesoterodine fumarate containing any individual impurities less than 0.15% after exposure to a relative humidity of 60% at 25° for a period of at least three months or after exposure to a relative humidity of 75% at 40° for a period of at least three months 2) High Performance Liquid Chromatography (HPLC) Method for Determination of Impurity X in Fesoterodine Fumarate of formula (1) […]
observable: Related substance i) Diol
Kindly format the answer as number then unit.

Q: Report Related substance i) Diol for CC(C)C(=O)Oc1ccc(CO)cc1[C@H](CCN(C(C)C)C(C)C)c1ccccc1.O=C(O)/C=C/C(=O)O [Fesoterodine Fumarate] please.
Result: 0.6%

----------
protocol_summary: Stability study for Fesoterodine Fumarate (description, water by KF, related substances by HPLC on storage)
Assay type: physicochemical
experimental_context: 3 Months 40° C. ± 2° C./RH 75% ± 5%; PSD: D(90) = 270 microns
observable: Related substance iv) Any individual impurities (%)
Provide only the numeric value, understood in %.

Q: Report Related substance iv) Any individual impurities for CC(C)C(=O)Oc1ccc(CO)cc1[C@H](CCN(C(C)C)C(C)C)c1ccccc1.O=C(O)/C=C/C(=O)O [Fesoterodine Fumarate] please.
Result: 0.04

----------
protocol_summary: Stability study for Fesoterodine Fumarate (description, water by KF, related substances by HPLC on storage)
Type: physicochemical
experimental_context: 1 Month 40° C. ± 2° C./RH 75% ± 5%; PSD: D(90) = 270 microns
Protocol: As used herein, the term “stable fesoterodine fumarate” fesoterodine fumarate containing any individual impurities less than 0.15% after exposure to a relative humidity of 60% at 25° for a period of at least three months or after exposure to a relative humidity of 75% at 40° for a period of at least three months 2) High Performance Liquid Chromatography (HPLC) Method for Determination of Impurity X in Fesoterodine Fumarate of formula (1) […]
observable: Related substance i) Diol (%)
Provide only the numeric value, understood in %.

Q: Report Related substance i) Diol for CC(C)C(=O)Oc1ccc(CO)cc1[C@H](CCN(C(C)C)C(C)C)c1ccccc1.O=C(O)/C=C/C(=O)O [Fesoterodine Fumarate] please.
Result: 0.33

----------
protocol_summary: Stability study for Fesoterodine Fumarate (description, water by KF, related substances by HPLC on storage)
Type: physicochemical
experimental_context: 1 Month 2 to 8° C.; PSD: D(90) = 270 microns
observable: Related substance v) Total impurities (%)
Provide only the numeric value, understood in %.

Q: Report Related substance v) Total impurities for CC(C)C(=O)Oc1ccc(CO)cc1[C@H](CCN(C(C)C)C(C)C)c1ccccc1.O=C(O)/C=C/C(=O)O [Fesoterodine Fumarate] please.
Result: 0.05

----------
protocol_summary: Stability study for Fesoterodine Fumarate (description, water by KF, related substances by HPLC on storage)
Format: physicochemical
experimental_context: 2 Months 25° C. ± 2° C./RH 60% ± 5%; PSD: D(90) = 270 microns
observable: Related substance i) Diol (%)
Provide only the numeric value, understood in %.

Q: Report Related substance i) Diol for CC(C)C(=O)Oc1ccc(CO)cc1[C@H](CCN(C(C)C)C(C)C)c1ccccc1.O=C(O)/C=C/C(=O)O [Fesoterodine Fumarate] please.
Result: 0.04
